The measured values listed here are drawn from patent US20260116991A1.

Target: T1, murine GPC3-his protein (Sino Biological, Cat. No. 50989-M08B) (murine, UniProt Q8CFZ4 25-558)
T1 construct: Bought protein; also called murine GPC3 protein
T1 sequence (Q8CFZ4 25-558 limits assumed): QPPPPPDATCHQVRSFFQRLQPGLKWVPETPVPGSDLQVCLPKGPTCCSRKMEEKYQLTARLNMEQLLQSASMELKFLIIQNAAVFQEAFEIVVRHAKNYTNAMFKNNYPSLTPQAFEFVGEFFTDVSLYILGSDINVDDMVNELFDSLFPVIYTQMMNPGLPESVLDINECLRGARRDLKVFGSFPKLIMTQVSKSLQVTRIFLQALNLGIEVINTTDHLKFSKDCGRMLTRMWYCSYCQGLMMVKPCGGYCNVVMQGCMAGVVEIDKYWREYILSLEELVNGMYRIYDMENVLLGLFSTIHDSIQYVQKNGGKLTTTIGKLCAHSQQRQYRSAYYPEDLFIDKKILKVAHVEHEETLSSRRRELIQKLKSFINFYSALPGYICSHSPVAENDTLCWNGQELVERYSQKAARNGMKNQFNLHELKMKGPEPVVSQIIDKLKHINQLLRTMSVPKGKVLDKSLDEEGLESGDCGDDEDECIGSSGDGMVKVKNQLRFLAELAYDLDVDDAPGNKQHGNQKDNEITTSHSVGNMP
Experiment: ELISA, coated murine GPC3-His;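 further: antigen coated on plates at 1 µg/mL, test antibody bound for 2 h at 37 °C, detected with HRP-conjugated secondary antibody and TMB substrate after acid stop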
metric-name: OD450 at 0.01 nM antibody (OD450 nm)

binder	result-number
F2.154.1 human-murine chimeric antibody (antibody, human IgG1, kappa, V domains shown) VH: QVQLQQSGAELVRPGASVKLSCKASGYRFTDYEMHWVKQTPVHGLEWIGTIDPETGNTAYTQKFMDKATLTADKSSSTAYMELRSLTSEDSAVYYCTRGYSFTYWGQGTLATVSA VL: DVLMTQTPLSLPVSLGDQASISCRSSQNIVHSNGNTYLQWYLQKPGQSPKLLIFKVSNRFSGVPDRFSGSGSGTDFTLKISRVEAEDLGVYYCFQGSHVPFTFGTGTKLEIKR	0.05
F1.2.14 human-murine chimeric antibody (antibody, human IgG1, kappa, V domains shown) VH: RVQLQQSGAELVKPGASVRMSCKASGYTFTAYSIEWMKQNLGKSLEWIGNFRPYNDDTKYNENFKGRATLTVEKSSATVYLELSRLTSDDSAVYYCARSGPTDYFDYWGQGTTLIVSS VL: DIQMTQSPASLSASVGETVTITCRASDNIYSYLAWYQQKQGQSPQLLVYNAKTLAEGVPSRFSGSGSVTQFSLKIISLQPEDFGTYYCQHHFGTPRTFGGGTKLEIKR	0.06
F1.42.8 human-murine chimeric antibody (antibody, human IgG1, kappa, V domains shown) VH: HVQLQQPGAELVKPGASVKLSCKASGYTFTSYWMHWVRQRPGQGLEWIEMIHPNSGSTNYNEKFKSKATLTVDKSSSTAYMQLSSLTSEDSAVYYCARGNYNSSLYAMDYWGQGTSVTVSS VL: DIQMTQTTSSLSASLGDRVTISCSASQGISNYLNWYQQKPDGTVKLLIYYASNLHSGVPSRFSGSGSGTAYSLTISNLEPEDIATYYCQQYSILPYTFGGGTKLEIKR	0.37
